Biological target: T1, cynomolgus RSPO3 (cynomolgus, UniProt A0A2K5UTQ7 22-273)
T1 construct: also called cyno RSPO3
T1 sequence: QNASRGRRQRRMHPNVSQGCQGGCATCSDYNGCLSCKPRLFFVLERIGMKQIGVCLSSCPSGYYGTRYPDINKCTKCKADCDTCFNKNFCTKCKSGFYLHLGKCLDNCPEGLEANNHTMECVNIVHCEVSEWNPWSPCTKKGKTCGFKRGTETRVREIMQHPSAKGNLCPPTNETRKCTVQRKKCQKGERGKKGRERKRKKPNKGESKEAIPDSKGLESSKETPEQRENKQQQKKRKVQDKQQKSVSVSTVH
Assay: SPR (BIAcore T200), RSPO3 immobilized, antibody injected, 25 C, 1:1 Langmuir
EXPERIMENTAL ENDPOINT: pKd
pKd here: minus log base 10 of the concentration, concentration in moles per litre.

hu15F3.L4H2 (antibody, V domains shown, CDR graft only (L4, H2); also called humanized 15F3) VH: EVQLVESGGGVVQPGRSLRLSCAASGFTFSDYDMAWVRQAPGKGLEWVATIIYDGSRAYFGDSVRGRFTISRDNSKNTLYLQMNSLRAEDTAVYYCTAHDRSFDYWGQGTMVTVSS VL: DIQMTQSPSSLSASVGDRVTITCLVSEDISNDFVWYQQKPGKAPKLLIYAASRLQDGVPSRFSGSGSGTDFTLTISSLQPEDFATYYCQQSYKYPPTFGQGTKLEIK : 9.33
hu11C10.L5H1 (antibody, V domains shown, CDR graft light chain L5 with H1; also called humanized 11C10) VH: EVQLVESGGGVVQPGRSLRLSCAASGFTFSDYDMAWVRQAPGKGLEWVATIIYDGSRTYYRDSVKGRFTISRDNSKNTLYLQMNSLRAEDTAVYYCATHDKTFDYWGQGTMVTVSS VL: DIQLTQSPSSLSASVGDRVTITCRASEDIYSDLAWYQQKPGKAPKLLIYDVNSLIHGVPSRFSGSGSGTDFTLTISSLQPEDFATYYCQQYDNYPNTFGQGTKLEIK : 8.76
hu4A6.L4H2 (antibody, V domains shown, CDR graft only (L4, H2); also called humanized 4A6) VH: EVQLVESGGGVVQPGRSLRLSCAASGFTFSDYDMAWVRQAPGKGLEWVATIIYDGSRTYYRDSVKGRFTISRDNSKNTLYLQMNSLRAEDTAVYYCAAHDRSFDYWGQGTMVTVSS VL: DIQMTQSPSSLSASVGDRVTITCLASEDISNDLVWYQQKPGKAPKLLIYAASRLQDGVPSRFSGSGFGTDFTLTISSLQPEDFATYYCQQSYKYLPTFGQGTKLEIK : 9.61

Now turn to the next binder.
Challenge: I would be grateful if you could share the reported pKd for chimeric 15F3 (antibody, V domains shown, Chimeric counterpart with the rat 15F3 variable domains) VH: EVQLVESGGGLVQPGRSLKLSCAASGFTFSDYDMAWVRQAPKKGLEWVATIIYDGSRAYFGDSVRGRFTVSRDNTKSTLYLQMDSLRSEDTATYYCTAHDRSFDYWGQGVMVTVSS VL: DIQMTQSPASLSASLGETVSIECLVSEDISNDFVWYQQKSGKSPQLLIYAASRLQDGVPSRFSGSGSGTRFSLRISGMQPEDEAEYFCQQSYKYPPTFGAGTKLELK .
Response given: 9.24
